B1: INTS3 (parent)
chain: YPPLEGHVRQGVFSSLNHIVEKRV

Variants of: B1
protocol.description: protein stability index of a GFP-peptide fusion (GPS, HEK-293T) (PSI 1-6); higher = more stable;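 note: lentivirally expressed fusions sorted by FACS into six bins by GFP to DsRed ratio, PSI derived from sequencing read proportions per bin multiplied by bin number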
test.parameters: c terminus: a fixed tail appended
endpoint.name: protein stability index
// print number alone

- variant.identifier: "K22S"
  protein stability index: 2.09
- variant.identifier: "E21C"
  protein stability index: 2.23
- variant.identifier: "S14P"
  protein stability index: 2.22
- variant.identifier: "R9T"
  protein stability index: 2.13
- variant.identifier: "Q10P"
  protein stability index: 2.3
- variant.identifier: "E21L"
  protein stability index: 2.29

[ask] Recorded protein stability index for `S15Y` , please?
[reply] 1.33

[ask] Recorded protein stability index for `L4H` , please?
[reply] 3.01

[ask] Recorded protein stability index for `V12P` , please?
[reply] 3.19
